All figures here come from patent US20030215462A1.

Assign activity at 15 min, 50 µM to each entry below.
- target_under_test: UGT1A8 (Homo sapiens, UniProt Q9HAW9)
- Sequence (Q9HAW9 26-530): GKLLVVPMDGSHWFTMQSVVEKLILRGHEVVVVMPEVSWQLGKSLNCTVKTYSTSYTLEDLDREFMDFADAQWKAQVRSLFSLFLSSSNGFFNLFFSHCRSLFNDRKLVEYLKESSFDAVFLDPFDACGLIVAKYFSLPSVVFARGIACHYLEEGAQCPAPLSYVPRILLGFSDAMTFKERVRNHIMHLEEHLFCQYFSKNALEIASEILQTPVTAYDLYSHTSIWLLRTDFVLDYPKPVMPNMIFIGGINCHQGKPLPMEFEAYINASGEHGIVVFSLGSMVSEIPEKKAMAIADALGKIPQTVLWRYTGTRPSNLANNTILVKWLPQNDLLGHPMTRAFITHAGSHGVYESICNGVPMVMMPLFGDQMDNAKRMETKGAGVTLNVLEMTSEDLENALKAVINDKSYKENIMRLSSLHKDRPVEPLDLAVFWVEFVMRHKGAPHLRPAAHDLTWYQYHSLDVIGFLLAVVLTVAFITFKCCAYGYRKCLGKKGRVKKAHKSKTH
- assay_procedure: Inhibition of raloxifene glucuronidation by recombinant UGT1A8 Supersomes
- conditions_used: human, Supersomes with recombinant human UGT1A8, pH 7.5, probe raloxifene 50 μM, formation of glucuronide G2, % of control metabolism, raloxifene G2, UGT1A8; inhibitor 50 μM
Provide only the numeric value, understood in %.

Requested read-out: activity at 15 min, 50 µM. Entry: CCCCCCCCOC(=O)c1cc(O)c(O)c(O)c1 [Octyl gallate] 95

Requested read-out: activity at 15 min, 50 µM. Entry: O=C(O[C@@H]1Cc2c(O)cc(O)cc2O[C@H]1c1cc(O)c(O)c(O)c1)c1cc(O)c(O)c(O)c1 [Gallocatechin gallate] 35
